Assay: Unbound fraction in rat
Assay type: ADME
measurementType: fraction unbound

Illustrative cases are given below, each with its answer.
compound: C[C@]1(C(=O)O)CCC[C@@H](c2nc(-c3ccc(C(=O)Nc4cc(C(F)(F)F)ccn4)cc3)c3c(N)nccn23)C1 (racemic)
measurementType: fraction unbound
observedValue: 0.002
//
compound: C[C@]1(C(=O)O)CC[C@@](C)(c2nc(-c3ccc(C(=O)Nc4cc(C(F)(F)F)ccn4)cc3)c3c(N)nccn23)C1
measurementType: fraction unbound
observedValue: 0.001
//
compound: C[C@]1(C(=O)O)CCC[C@@](C)(c2nc(-c3ccc(C(=O)Nc4cc(C(F)(F)F)ccn4)cc3)c3c(N)nccn23)C1
measurementType: fraction unbound
observedValue: 0.002

P. CC(C)[C@@]1(C(=O)O)CC[C@@](C)(c2nc(-c3ccc(C(=O)Nc4cc(C(F)(F)F)ccn4)cc3)c3c(N)nccn23)C1
Q. C[C@]1(C(=O)O)CC[C@@](C)(c2nc(-c3ccc(C(=O)Nc4cc(C(F)(F)F)ccn4)cc3)c3c(N)nccn32)CC1
Query: Of P and Q , whose reported fraction unbound is the larger number? Lab log: write the label of the selected item as the result.
Result: P
(P: 0.003, Q: 0.001)

The reported numbers originate from ChEMBL document CHEMBL3997842.
